Provenance of the data: PubChem BioAssay (NCI)

System: PC-3 prostate
Assay: NCI tumour cell line growth inhibition, 48 h
attribute_measured: TGI

molecule	measured_on	attribute_measured	obs_value
O=C1C2C3C4C1C1C2[C@H](OCc2ccccc2)C3C1[C@H]4OCc1ccccc1 (some centres not stated)	PC-3 prostate	TGI	> 100 µM
Cc1ccc(S(=O)(=O)NNC(=O)Nc2cccc(C(F)(F)F)c2)cc1	PC-3 prostate	TGI	> 100 µM
O=C(O)C(Cc1cc(I)c(O)c(I)c1)C1CCCCC1 (configuration not stated)	PC-3 prostate	TGI	41.5 µM
COc1ccc(-c2csc3c2-n2cccc2C3=O)cc1	PC-3 prostate	TGI	> 52.1 µM
CCNC1=C(NC(=O)c2ccc(F)cc2)C(=O)c2ccccc2C1=O	PC-3 prostate	TGI	> 100 µM
C/C(=N/NC(=O)c1ccncc1)C(F)(F)F	PC-3 prostate	TGI	> 100 µM
CCOC(=O)c1nc2ccccc2nc1Oc1cc(OC)cc(OC)c1	PC-3 prostate	TGI	> 100 µM
COc1ccc(N2C(=O)c3cc([N+](=O)[O-])cnc3S2(=O)=O)cc1	PC-3 prostate	TGI	> 100 µM
COC(=O)C(=O)C(C(=O)C(=O)Nc1ccc(Cl)c(Cl)c1)c1nc2ccc(C(=O)c3ccccc3)cc2[nH]c1=O (configuration not stated)	PC-3 prostate	TGI	> 100 µM
COCN1C(=O)[C@@H]2CCCN2C(=O)c2cc(OC)c(Cc3ccccc3)cc21	PC-3 prostate	TGI	> 100 µM
COc1cc(/C=C/C(=O)c2cccc(-n3cc(-c4ccccc4)[nH]c3=O)c2)cc(OC)c1OC	PC-3 prostate	TGI	20.7 µM
O=C(CCCc1ccc(N(CCCl)CCCl)cc1)NCc1ccccc1	PC-3 prostate	TGI	73.9 µM
CC(C)OC(=O)NCCn1cc(-c2ccccc2)nn1	PC-3 prostate	TGI	> 100 µM
COC(=O)C(Cc1ccccc1)NC(=O)CSc1nnc(COc2ccc(Cl)cc2)n1-c1ccccc1 (configuration not stated)	PC-3 prostate	TGI	59 µM
COc1ccc(-c2nc3sc(-c4cc(OC)c(OC)c(OC)c4)nn3c2/C=C2/C(=O)Nc3ccc(F)cc32)cc1	PC-3 prostate	TGI	65.3 µM
C=CCOC(=O)Cn1cnc2c(N)ncnc21	PC-3 prostate	TGI	> 100 µM
CC(C)(C)[Si](C)(C)OCC1OC(n2cnc3c(N)ncnc32)C2OC(=S)OC12 (configuration not stated)	PC-3 prostate	TGI	> 100 µM
Cn1cc(C2=C(c3ccsc3)C(=O)NC2=O)c2ccccc21	PC-3 prostate	TGI	> 25 µM
O=C1c2ccccc2-c2nnc3c(c21)Cc1ccccc1C3	PC-3 prostate	TGI	> 10 µM
COc1cc2nc3n(c2cc1OC)C(O)c1c(Cl)nc(SC)nc1S3 (configuration not stated)	PC-3 prostate	TGI	> 49.8 µM
CC(=O)/C(=C\c1ccc(Cl)cc1)c1ccccc1	PC-3 prostate	TGI	> 100 µM
Cc1c(Cl)cccc1C(=O)Nc1nc2c(s1)CN(C(=O)Nc1cccc(C(F)(F)F)c1)CC2	PC-3 prostate	TGI	> 50 µM

====

Below, each entry is listed alongside its reported TGI.
System: SK-OV-3 ovarian
Assay: NCI tumour cell line growth inhibition, 48 h
attribute_measured: TGI

compound	attribute_measured	obs_value
CC(C)=CCc1cc2c(cc1O)C1=C(C(=O)C3=C(NCCS3(=O)=O)C1=O)C(C=C(C)C)O2 (stereo unspecified)	TGI	> 16.7 µM
CN(C)c1cccc(-c2cc(=S)c3cc4c(cc3[nH]2)OCO4)c1	TGI	> 100 µM
O=c1nc2n(-c3cccc(Cl)c3)c3ccc([N+](=O)[O-])cc3cc-2c(=O)[nH]1	TGI	> 25 µM
COc1ccc(C2=NN(C(N)=S)C(c3ccc4c(c3)OCO4)C2)cc1 (stereo unspecified)	TGI	6.12 µM
Clc1ccc(/C=C/c2nc(-c3ccccc3)cn3c2nc2ccccc23)cc1Cl	TGI	> 100 µM
N/N=c1/nc2n(c3ncccc13)C=CNN2	TGI	> 100 µM
CC(=O)OCC1C(=O)OCC1C(=O)N1Cc2cc3ccccc3nc2C1 (stereo unspecified)	TGI	31.1 µM
Cc1cc(I)cc(CNCCN(C)C)c1O	TGI	> 100 µM
COc1cc(/C=C/C(=O)c2cccc(-n3cc(-c4ccccc4)[nH]c3=O)c2)cc(OC)c1OC	TGI	11.3 µM
NC1=C(O)c2cccc3cccc(c23)C1=O	TGI	> 100 µM
O=C(CCc1n[nH]c(=S)o1)Nc1cc(Cl)ccc1Cl	TGI	> 100 µM
